B1: ZNF263 (parent)
chain: HLTRHQRTHTGEKPYKCTLCGENF

Variants of: B1
PROTOCOL: protein stability index of a GFP-peptide fusion (GPS, HEK-293T) (PSI 1-6); higher = more stable;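 also: lentivirally expressed fusions sorted by FACS into six bins by GFP to DsRed ratio, PSI derived from sequencing read proportions per bin multiplied by bin number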
MEASUREMENT CONTEXT: c terminus: a fixed tail appended
Record Fulfilled whenever protein stability index is at 3 or higher; record Not fulfilled when lower.

Look over these answered cases.
SEQ	CLASS
HLTRHQRTHTGEKPYKCTLCGRNF [E22R]	Not fulfilled
HLTRHQRDHTGEKPYKCTLCGENF [T8D]	Fulfilled
HLRRHQRTHTGEKPYKCTLCGENF [T3R]	Fulfilled
HHTRHQRTHTGEKPYKCTLCGENF [L2H]	Fulfilled

Could you please find out whether HLTRHQRTHTGEKPYKCNLCGENF [T18N] has protein stability index that meets 3 or exceeds it?
Not fulfilled

Could you please find out whether HLTRHQRTHTGSKPYKCTLCGENF [E12S] has protein stability index that meets 3 or exceeds it?
Fulfilled

Could you please find out whether HLTRHQRTHAGEKPYKCTLCGENF [T10A] has protein stability index that meets 3 or exceeds it?
Fulfilled

Could you please find out whether HLTRHQRTHTGEEPYKCTLCGENF [K13E] has protein stability index that meets 3 or exceeds it?
Fulfilled
